Source listed as paper PMC5303205.

MEASUREMENT_PROTOCOL: Stability of AAs in rat plasma (QC samples, HPLC-MS/MS)
Assay type: in vitro ADME
STUDY_CONDITIONS: rat plasma, three freeze-thaw cycles (–20 °C 24 h, thawed at room temperature); low QC conc ng/mL: AA I 1.83, AA II 8.00, AA C 186.3, AA D 36.8, 7-OH AA I 82.0; n = 5

{"COMPOUND": "COc1c(O)ccc2c1cc([N+](=O)[O-])c1c(C(=O)O)cc3c(c12)OCO3 [7-OH AA I]", "Freeze-thaw stability (RSD/%)": "6.2%"}
{"COMPOUND": "COc1cc(O)cc2c1cc([N+](=O)[O-])c1c(C(=O)O)cc3c(c12)OCO3 [AA D]", "Freeze-thaw stability (RSD/%)": "4.8%"}
{"COMPOUND": "COc1cccc2c1cc([N+](=O)[O-])c1c(C(=O)O)cc3c(c12)OCO3 [AA I]", "Freeze-thaw stability (RSD/%)": "1.1%"}
{"COMPOUND": "O=C(O)c1cc2c(c3c1c([N+](=O)[O-])cc1ccccc13)OCO2 [AA II]", "Freeze-thaw stability (RSD/%)": "1.3%"}

====

MEASUREMENT_PROTOCOL: Stability of AAs in rat plasma (QC samples, HPLC-MS/MS)
Assay type: in vitro ADME
STUDY_CONDITIONS: fresh rat plasma at room temperature for 24 h before sample preparation; high QC conc ng/mL: AA I 1830, AA II 3200, AA C 2980, AA D 3680, 7-OH AA I 3280; n = 5
We begin with a simple list: items and their reported Short-term stability (RSD/%).
QUANTITY_KIND: Short-term stability (RSD/%)

{"SMILES_INPUT": "COc1cccc2c1cc([N+](=O)[O-])c1c(C(=O)O)cc3c(c12)OCO3", "UNITS_TEXT": "%", "MEAS_VALUE": 6.5}
{"SMILES_INPUT": "COc1c(O)ccc2c1cc([N+](=O)[O-])c1c(C(=O)O)cc3c(c12)OCO3", "UNITS_TEXT": "%", "MEAS_VALUE": 9.1}
{"SMILES_INPUT": "O=C(O)c1cc2c(c3c1c([N+](=O)[O-])cc1ccccc13)OCO2", "UNITS_TEXT": "%", "MEAS_VALUE": 9.3}
{"SMILES_INPUT": "COc1cc(O)cc2c1cc([N+](=O)[O-])c1c(C(=O)O)cc3c(c12)OCO3", "UNITS_TEXT": "%", "MEAS_VALUE": 8.6}

====

We begin with a simple list: items and their reported Vd/F.
MEASUREMENT_PROTOCOL: Multi-component pharmacokinetics of AAs in rats after oral administration of AF and HAF extracts (HPLC-MS/MS of plasma)
Parameters: species or system Sprague–Dawley (SD) rats
STUDY_CONDITIONS: Sprague-Dawley, rat, in vivo, 3 mg/kg, AF extract, low dose (3.0 mg/kg as AA I), analyte dose mg/kg: AA I 3.0, AA II 0.21, AA C 1.42, AA D 1.60, 7-OH AA I 2.33, n = 6, read-out: Vz/F

{"SMILES_INPUT": "COc1c(O)ccc2c1cc([N+](=O)[O-])c1c(C(=O)O)cc3c(c12)OCO3", "UNITS_TEXT": "L/kg", "Vd/F": 24.7}
{"SMILES_INPUT": "COc1cccc2c1cc([N+](=O)[O-])c1c(C(=O)O)cc3c(c12)OCO3", "UNITS_TEXT": "L/kg", "Vd/F": 2.85}
{"SMILES_INPUT": "COc1cc(O)cc2c1cc([N+](=O)[O-])c1c(C(=O)O)cc3c(c12)OCO3", "UNITS_TEXT": "L/kg", "Vd/F": 35.7}
{"SMILES_INPUT": "O=C(O)c1cc2c(c3c1c([N+](=O)[O-])cc1ccccc13)OCO2", "UNITS_TEXT": "L/kg", "Vd/F": 0.49}

====

MEASUREMENT_PROTOCOL: Stability of AAs in rat plasma (QC samples, HPLC-MS/MS)
Format: in vitro ADME
STUDY_CONDITIONS: fresh rat plasma at room temperature for 24 h before sample preparation; middle QC conc ng/mL: AA I 457.5, AA II 400, AA C 372.5, AA D 460, 7-OH AA I 410; n = 5

{"COMPOUND": "COc1cc(O)cc2c1cc([N+](=O)[O-])c1c(C(=O)O)cc3c(c12)OCO3 [AA D]", "Short-term stability (RSD/%)": 11.7}
{"COMPOUND": "COc1c(O)ccc2c1cc([N+](=O)[O-])c1c(C(=O)O)cc3c(c12)OCO3 [7-OH AA I]", "Short-term stability (RSD/%)": 11.8}
{"COMPOUND": "COc1cccc2c1cc([N+](=O)[O-])c1c(C(=O)O)cc3c(c12)OCO3 [AA I]", "Short-term stability (RSD/%)": 8.7}
{"COMPOUND": "O=C(O)c1cc2c(c3c1c([N+](=O)[O-])cc1ccccc13)OCO2 [AA II]", "Short-term stability (RSD/%)": 5.5}

====

We begin with a simple list: items and their reported AUC(0-inf).
MEASUREMENT_PROTOCOL: Multi-component pharmacokinetics of AAs in rats after oral administration of AF and HAF extracts (HPLC-MS/MS of plasma)
Design: species or system Sprague–Dawley (SD) rats
STUDY_CONDITIONS: Sprague-Dawley, rat, in vivo, 3 mg/kg, HAF extract, low dose (3.0 mg/kg as AA I), analyte dose mg/kg: AA I 3.0, AA II 0.26, AA C 1.53, AA D 1.51, 7-OH AA I 2.48, n = 6

{"SMILES_INPUT": "COc1c(O)ccc2c1cc([N+](=O)[O-])c1c(C(=O)O)cc3c(c12)OCO3", "AUC(0-inf) (µg·h/mL)": 0.62}
{"SMILES_INPUT": "COc1cccc2c1cc([N+](=O)[O-])c1c(C(=O)O)cc3c(c12)OCO3", "AUC(0-inf) (µg·h/mL)": 5.23}
{"SMILES_INPUT": "O=C(O)c1cc2c(c3c1c([N+](=O)[O-])cc1ccccc13)OCO2", "AUC(0-inf) (µg·h/mL)": 2.72}
{"SMILES_INPUT": "COc1cc(O)cc2c1cc([N+](=O)[O-])c1c(C(=O)O)cc3c(c12)OCO3", "AUC(0-inf) (µg·h/mL)": 0.179}

====

We begin with a simple list: items and their reported Tmax.
MEASUREMENT_PROTOCOL: Multi-component pharmacokinetics of AAs in rats after oral administration of AF and HAF extracts (HPLC-MS/MS of plasma)
Set-up: species or system Sprague–Dawley (SD) rats
STUDY_CONDITIONS: Sprague-Dawley, rat, in vivo, 3 mg/kg, HAF extract, low dose (3.0 mg/kg as AA I), analyte dose mg/kg: AA I 3.0, AA II 0.26, AA C 1.53, AA D 1.51, 7-OH AA I 2.48, n = 6

{"SMILES_INPUT": "O=C(O)c1cc2c(c3c1c([N+](=O)[O-])cc1ccccc13)OCO2", "UNITS_TEXT": "min", "Tmax": 48.6}
{"SMILES_INPUT": "COc1c(O)ccc2c1cc([N+](=O)[O-])c1c(C(=O)O)cc3c(c12)OCO3", "UNITS_TEXT": "min", "Tmax": 30}
{"SMILES_INPUT": "COc1cccc2c1cc([N+](=O)[O-])c1c(C(=O)O)cc3c(c12)OCO3", "UNITS_TEXT": "min", "Tmax": 23.4}
{"SMILES_INPUT": "COc1cc(O)cc2c1cc([N+](=O)[O-])c1c(C(=O)O)cc3c(c12)OCO3", "UNITS_TEXT": "min", "Tmax": 46.8}

====

We begin with a simple list: items and their reported half-life.
MEASUREMENT_PROTOCOL: Multi-component pharmacokinetics of AAs in rats after oral administration of AF and HAF extracts (HPLC-MS/MS of plasma)
Design: species or system Sprague–Dawley (SD) rats
STUDY_CONDITIONS: Sprague-Dawley, rat, in vivo, 3 mg/kg, AF extract, low dose (3.0 mg/kg as AA I), analyte dose mg/kg: AA I 3.0, AA II 0.21, AA C 1.42, AA D 1.60, 7-OH AA I 2.33, n = 6, read-out: t 1/2z (converted)

{"SMILES_INPUT": "COc1c(O)ccc2c1cc([N+](=O)[O-])c1c(C(=O)O)cc3c(c12)OCO3", "half-life (h)": 3.84}
{"SMILES_INPUT": "COc1cccc2c1cc([N+](=O)[O-])c1c(C(=O)O)cc3c(c12)OCO3", "half-life (h)": 3.5}
{"SMILES_INPUT": "O=C(O)c1cc2c(c3c1c([N+](=O)[O-])cc1ccccc13)OCO2", "half-life (h)": 4.98}
{"SMILES_INPUT": "COc1cc(O)cc2c1cc([N+](=O)[O-])c1c(C(=O)O)cc3c(c12)OCO3", "half-life (h)": 2.45}
